target: T1, GST-MDM2 (human MDM2 residues 17-125) (human, UniProt Q00987 17-125)
T1 construct: range 17-125; No removal of GST is reported; not shown: glutathione S-transferase (GST) tag encoded by vector pGEX-6P-2
T1 sequence (Q00987 17-125): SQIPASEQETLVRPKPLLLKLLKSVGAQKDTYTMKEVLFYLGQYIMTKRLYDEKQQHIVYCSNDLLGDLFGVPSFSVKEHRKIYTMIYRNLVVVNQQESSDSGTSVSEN
runDescription: direct binding of the FITC-labeled peptide to MDM2
observedProperty: pKd
Lab note: report pKd as minus log10 of the concentration in molar units, number only.

State the recorded pKd for this entry: LTFXHYWXQLTS (not fully specified; homocysteine at 4 and 8, joined by a 1,3-dichloroacetone (DCA) staple; FITC label; the rest of the structure only in drawing CHEM-US-00019, X stands for homocysteine; also called 3-1-1-DCA) [peptide 2 (PDI with homocysteine at Glu-4 and Ala-8, stapled with DCA, FITC-labeled)]
6.84

Continuing:
State the recorded pKd for this entry: LTFEXYWAXLTS (not fully specified; homocysteine at 5 and 9, joined by a 1,3-dichloroacetone (DCA) staple; FITC label; the rest of the structure only in drawing CHEM-US-00020, X stands for homocysteine) [peptide 3 (PDI with homocysteine at His-5 and Gln-9, stapled with DCA, FITC-labeled)]
6.77
